Tested on: T-47D breast
experimentalDetails: NCI-60 one-dose screen, 48 h
particulars: 10 µM unless noted
About 83,000 compounds went through this panel and 20% of them were active in at least one assay; those are over-represented in the sample as a whole. Calls of active or inactive are those of the source. Rule for the calls: active = growth percent below 10; inactive = the rest.
Classes used: YES (active), NO (inactive)

>>> grouplabel("C[C@@H](N)c1ccc(C(=O)Nc2ccnc3[nH]ccc23)cc1")
"NO"
>>> grouplabel("O=C1OCC2=C1C(c1cccc(F)c1)c1cc3c(cc1N2CCO)OCCO3 (stereo not given)")
"NO"
>>> grouplabel("O=C1CC(c2ccc3c(c2)OCO3)c2ncn(-c3ccc(Cl)cc3)c2N1 (stereo not given)")
"NO"
>>> grouplabel("[2H]C1([2H])[C@H](C)O[C@H](C)C([2H])([2H])N1c1ccc(NC(=O)c2cccc(-c3ccc(OC(F)(F)F)cc3)c2C)cn1")
"NO"
>>> grouplabel("CC(=O)C(C(C)=O)C(c1ccccc1)C(C(C)=O)C(C)=O")
"NO"
>>> grouplabel("CC(=O)c1cnc2ccc(-c3cc(Cl)c(O)c(Cl)c3)nc2c1NC1CCC(CN(C)C)CC1 (stereo not given)")
"YES"
>>> grouplabel("CC(C)(C)c1cnc(CSc2cnc(NC(=O)C3CCNCC3)s2)o1")
"YES"
>>> grouplabel("Cc1cc(O)c2c(c1)C1OC(=O)CCCCCN1C1=C2C(=O)c2cccc(OC3CC(O)C(O)C(C)O3)c2C1=O (stereo not given)")
"NO"
>>> grouplabel("O=C(O)c1ccc(Nc2ncc3c(n2)-c2ccc(Cl)cc2C(c2c(F)cccc2F)=NC3)cc1")
"NO"
>>> grouplabel("COc1cc(Nc2ncc(F)c(Nc3ccc4c(n3)NC(=O)C(C)(C)O4)n2)cc(OC)c1OC")
"NO"
